System: LB771-HNC;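 note: growth inhibition of LB771-HNC human cells, read out with a cell viability assay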
Assay: cells
Type: functional, cell-based
Details: Homo sapiens
Description: SANGER: Inhibition of human LB771-HNC cell growth in a cell viability assay.
pIC50: −log10 of the molar value.
quantityName: pIC50

Given item NC(=O)c1cccc(-c2cc(Nc3ccc(OC(F)(F)F)cc3)ncn2)c1 , the value recorded as its pIC50 is < 5.89

Given item Cc1ccc(C(=O)Nc2ccc(CN3CCN(C)CC3)c(C(F)(F)F)c2)cc1C#Cc1cnc2cccnn12 , the value recorded as its pIC50 is < 6.29

Given item CN(C)CCOc1ccc(-c2nc(-c3ccncc3)c(-c3ccc4c(c3)CC/C4=N\O)[nH]2)cc1 , the value recorded as its pIC50 is < 5.30

Given item C=CC(=O)N1CCCC(Nc2nc(Nc3ccc(N(C)C(=O)CC)cc3)nc3[nH]cnc23)C1 (configuration not stated) , the value recorded as its pIC50 is < 4.99

Given item O=C(NCCCNc1nc(Nc2cccc(NC(=O)N3CCCC3)c2)ncc1I)c1cccs1 , the value recorded as its pIC50 is < 5.30

Given item C[C@@H](Oc1cc(-c2cnn(C3CCNCC3)c2)cnc1N)c1c(Cl)ccc(F)c1Cl , the value recorded as its pIC50 is < 5.70

Given item O=C1NC(=O)c2c1c(-c1ccccc1Cl)cc1[nH]c3ccc(O)cc3c21 , the value recorded as its pIC50 is < 5.70

----------
System: KNS-62
Experiment: cells
Format: functional, cell-based
Settings: Homo sapiens
Description: SANGER: Inhibition of human KNS-62 cell growth in a cell viability assay.
pIC50: −log10 of the molar value.
quantityName: pIC50

Given item O=C(NCCCNc1nc(Nc2cccc(NC(=O)N3CCCC3)c2)ncc1I)c1cccs1 , the value recorded as its pIC50 is < 5.30

Given item CC1=C(/C=C/C(C)=C/C=C/C(C)=C/C(=O)O)C(C)(C)CCC1 , the value recorded as its pIC50 is < 5.00

Given item NC1(c2ccc(-c3nc4ccn5c(=O)[nH]nc5c4cc3-c3ccccc3)cc2)CCC1 , the value recorded as its pIC50 is 5.44

Given item NC(=O)c1ccc(N(C(N)=O)c2c(F)cccc2F)nc1-c1ccc(F)cc1F , the value recorded as its pIC50 is < 5.70

----------
System: ES7;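 note: growth inhibition of cultured human ES7 cells, read out as cell viability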
Assay: cells
Type: functional, cell-based, Homo sapiens
Settings: Homo sapiens, ES7
Description: SANGER: Inhibition of human ES7 cell growth in a cell viability assay.
quantityName: pIC50
Field pIC50 (float): negative decimal logarithm of the concentration in molar.

Given item Nc1ccccc1NC(=O)c1ccc(CNC(=O)OCc2cccnc2)cc1 [ENTINOSTAT] , the value recorded as its pIC50 is 5.74

Given item COc1ccc(-c2cc3nccn3c(Nc3ncccc3C(N)=O)n2)cc1OC , the value recorded as its pIC50 is 5.96

----------
System: Mo
Assay: cells
Assay type: functional, cell-based, Homo sapiens
Details: Homo sapiens, Mo
Description: SANGER: Inhibition of human Mo-T cell growth in a cell viability assay.
quantityName: IC50

Query O=S(=O)(O)c1ccc2cc(/N=N/c3cc(S(=O)(=O)O)c4cccnc4c3O)ccc2c1 on Mo; IC50 returned: > 16000 nM

Query CN(C)CCOc1ccc(-c2nc(-c3ccncc3)c(-c3ccc4c(c3)CC/C4=N\O)[nH]2)cc1 on Mo; IC50 returned: > 5000 nM

Query NC(=O)c1ccc(N(C(N)=O)c2c(F)cccc2F)nc1-c1ccc(F)cc1F on Mo; IC50 returned: > 2000 nM

Query CC(C)C[C@H](NC(=O)[C@H](Cc1ccccc1)NC(=O)c1cnccn1)B(O)O on Mo; IC50 returned: 2.74 nM

Query Cc1ccc(C(=O)Nc2ccc(CN3CCN(C)CC3)c(C(F)(F)F)c2)cc1C#Cc1cnc2cccnn12 on Mo; IC50 returned: > 512 nM

Every entry's value here was drawn from ChEMBL document CHEMBL1201861.
